Listing of entries alongside the reported Remaining rate.
assay: Liver microsomal metabolism stability test, rat; type: in vitro ADME; details: rat liver microsomes, 60 min
measured quantity: Remaining rate

[[record]]
compound = "CCCCC1=NC2(CCCC2)C(=O)N1Cc1ccc(-c2ccccc2S(=O)(=O)Nc2noc(C)c2Br)c(COCC)c1 [Example 46]"
value_reported = "17.3%"

[[record]]
compound = "[2H]C([2H])(c1ccc(-c2ccccc2S(=O)(=O)Nc2noc(C)c2Cl)c(COCC)c1)N1C(=O)C2(CCCC2)N=C1CCCC [Example 44]"
value_reported = "29.4%"

[[record]]
compound = "CCCCC1=NC2(CCCC2)C(=O)N1Cc1ccc(-c2ccccc2S(=O)(=O)Nc2noc(C)c2Cl)c(COCC)c1 [Example 45]"
value_reported = "23.3%"

[[record]]
compound = "[2H]C([2H])(OCC)c1cc(CN2C(=O)C3(CCCC3)N=C2CCCC)ccc1-c1ccccc1S(=O)(=O)Nc1noc(C)c1Cl [Example 49]"
value_reported = "17.1%"


Origin of the recorded values: patent US20240368123A1
